Experiment: chemical genetic growth profiling, strain panel (AID 1159580);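 further: tested at 20 µM; growth read once vehicle control cultures reached saturation at 30 °C; 1 = growth at the plate median or of vehicle wells; lower values mean less growth of the strain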
Conditions: S. cerevisiae deletion strains, growth OD, locus YOR070C, strain gyp1, stronger effect = lower value
Hit rate of the full screen: of about 5,500 compounds, about 2,000 (36%) were called active. Another 18% or so got no clear call; they are omitted. The list shows a part of the results.
Reported normalized growth values for a set of compounds
Keep it simple and answer with nothing but the number.

Compound	normalized growth
Cc1ccc(/C(=C\CN2CCCC2)c2ccccn2)cc1	0.992
Nc1ncnc2c1ncn2C1C[C@H](O)[C@@H](CO)O1 (stereo partly drawn)	0.999
O=C1CCCC2C3CC(CN12)[C@@H]1CCCCN1C3 (stereo partly drawn)	1.02
O=C1O[C@H](C(O)CO)C(O)=C1O (stereo partly drawn)	0.989
C1CCN2CC3CC(CN4CCCCC34)C2C1 (stereo not drawn)	1.02

Any idea what normalized growth was measured for "Nc1ccc(S(=O)(=O)Nc2ccc(Cl)nn2)cc1" ? 0.991

Any idea what normalized growth was measured for "O=[N+]([O-])c1cc(O)c(O)c([N+](=O)[O-])c1" ? 1.03

Any idea what normalized growth was measured for CCC(Cc1c(I)cc(I)c(N)c1I)C(=O)O (stereo not drawn) ? 0.917

Any idea what normalized growth was measured for "C=C(CC)C(=O)c1ccc(OCC(=O)O)c(Cl)c1Cl" ? 1.04

Any idea what normalized growth was measured for "C=C(C)[C@H]1CC=C(C(=O)O)CC1" ? 0.963

Any idea what normalized growth was measured for CCCCC(CC)CN1CN(CC(CC)CCCC)CC(C)(N)C1 (stereo not drawn) ? 0.0567

Any idea what normalized growth was measured for C=C(C)C1CC=C(CO)CC1 (stereo not drawn) ? 0.97

Any idea what normalized growth was measured for "O=C(O)C1=CCNCC1" ? 1.02

Source of measurements: PubChem BioAssay AID1159580
